- Tested system: human CD33 L134M (human, UniProt P20138 18-364)
- Sequence (P20138 18-364 L134M limits assumed): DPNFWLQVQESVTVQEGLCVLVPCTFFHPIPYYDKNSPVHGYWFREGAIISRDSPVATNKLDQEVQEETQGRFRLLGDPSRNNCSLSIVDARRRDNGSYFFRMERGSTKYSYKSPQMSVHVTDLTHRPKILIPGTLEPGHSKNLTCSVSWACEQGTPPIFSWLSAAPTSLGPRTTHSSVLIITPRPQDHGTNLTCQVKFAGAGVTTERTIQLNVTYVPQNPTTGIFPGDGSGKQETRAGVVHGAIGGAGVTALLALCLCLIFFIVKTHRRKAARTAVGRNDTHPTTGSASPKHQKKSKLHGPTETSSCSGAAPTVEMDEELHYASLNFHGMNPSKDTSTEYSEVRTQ
- Assay summary: flow cytometry, HEK293-T, IgG;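 further: CD33 point mutants transiently expressed, antibody binding measured by fluorescence in duplicate, background subtracted and scaled to binding on wild-type CD33 as 100%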
Collected Mean % WT Binding values appear next to each entry.
Write down the numeric answer in % WT binding and omit the unit.

These recorded examples may help you get a feel for the data.
{"Binder": "Refmab #4 (antibody, human IgG1, V domains shown, tested in IgG format) VH: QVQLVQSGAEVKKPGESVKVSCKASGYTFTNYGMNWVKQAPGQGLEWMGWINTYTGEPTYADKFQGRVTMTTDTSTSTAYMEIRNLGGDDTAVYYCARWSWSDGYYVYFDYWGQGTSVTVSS VL: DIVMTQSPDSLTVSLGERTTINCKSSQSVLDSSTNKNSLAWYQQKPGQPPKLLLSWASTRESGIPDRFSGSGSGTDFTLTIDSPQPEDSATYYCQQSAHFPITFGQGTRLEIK", "Reported": 99}
{"Binder": "Refmab #1 (antibody, human IgG1, V domains shown, tested in IgG format; also called hP67.6) VH: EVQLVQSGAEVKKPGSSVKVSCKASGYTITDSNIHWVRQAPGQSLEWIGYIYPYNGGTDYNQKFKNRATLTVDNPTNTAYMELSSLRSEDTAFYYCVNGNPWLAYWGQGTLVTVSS VL: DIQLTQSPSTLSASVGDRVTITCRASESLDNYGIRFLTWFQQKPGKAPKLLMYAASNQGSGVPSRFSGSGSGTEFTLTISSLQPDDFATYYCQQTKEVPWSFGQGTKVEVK", "Reported": 81.2}

Need Mean % WT Binding of Refmab #2 (antibody, human IgG1, V domains shown, tested in IgG format) VH: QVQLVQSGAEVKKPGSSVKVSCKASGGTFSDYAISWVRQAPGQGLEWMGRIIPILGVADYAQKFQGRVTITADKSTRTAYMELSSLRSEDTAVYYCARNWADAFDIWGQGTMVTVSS VL: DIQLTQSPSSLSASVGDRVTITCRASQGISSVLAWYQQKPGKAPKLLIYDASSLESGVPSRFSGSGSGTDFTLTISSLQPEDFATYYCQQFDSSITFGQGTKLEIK , thanks. 105
